For human kappa opioid receptor (Homo sapiens, UniProt P41145), measured pKi is reported for the entries below.
Friendly reminder that pKi comes from taking -log10 of the concentration in mol/L.

Form: Entry = NC(=O)/C(=N\OCC(=O)O)c1nc2ccccc2n([C@H]2C[C@H]3CCC[C@@H](C2)N3C2CC3CCCC(C3)C2)c1=O (stereo partly drawn) | System = human kappa opioid receptor (Homo sapiens, UniProt P41145) | pKi = ____
5.77

Form: Entry = CON=C(CCC(=O)O)c1nc2ccccc2n([C@H]2C[C@H]3CC[C@@H](C2)N3C2CC3CCCC(C3)C2)c1=O (stereo partly drawn) | System = human kappa opioid receptor (Homo sapiens, UniProt P41145) | pKi = ____
5.56

====

pIC50: −log10 of the molar value.
For CYP2C9 (Homo sapiens), measured pIC50 is reported for the entries below.

Quick check: pIC50 of CC1CC2CC(C1)CC(N1[C@@H]3CCC[C@H]1C[C@@H](n1c(=O)c(/C(CCC(=O)O)=N/OCCN(C)C)nc4ccccc41)C3)C2 (stereo partly shown) ?
< 4.70

Quick check: pIC50 of O=C(O)/C(=N\OCCO)c1nc2ccccc2n([C@H]2C[C@H]3CCC[C@@H](C2)N3C2CC3CCCC(C3)C2)c1=O (stereo partly shown) ?
< 4.70

Quick check: pIC50 of CC1CC2CC(C1)CC(N1[C@@H]3CCC[C@H]1C[C@@H](n1c(=O)c(/C(CCC(=O)O)=N/OCCCN(C)C)nc4ccccc41)C3)C2 (stereo partly shown) ?
< 4.70

Quick check: pIC50 of NC(=O)CCC(=NOCC(=O)O)c1nc2ccccc2n([C@H]2C[C@H]3CCC[C@@H](C2)N3C2CC3CCCCC(C3)C2)c1=O (stereo partly shown) ?
< 4.70

Quick check: pIC50 of CCO/N=C(\CCC(=O)O)c1nc2ccccc2n([C@H]2C[C@H]3CCC[C@@H](C2)N3C2CC3CC(CC)CC(C3)C2)c1=O (stereo partly shown) ?
< 4.70

Quick check: pIC50 of CON=C(C(=O)O)c1nc2ccccc2n([C@H]2C[C@H]3CCC[C@@H](C2)N3C2CC3CCCCC(C3)C2)c1=O (stereo partly shown) ?
< 4.70

Quick check: pIC50 of O=C(O)CCC(=NO)c1nc2ccccc2n([C@H]2C[C@H]3CCC[C@@H](C2)N3C2CCCCCCCCC2)c1=O ?
< 4.70

Quick check: pIC50 of N#CC(=NOCC(=O)O)c1nc2ccccc2n([C@H]2C[C@H]3CCC[C@@H](C2)N3C2CC3CCCC(C3)C2)c1=O (stereo partly shown) ?
< 4.70

Quick check: pIC50 of CC(C)ON=C(CCC(=O)O)c1nc2ccccc2n([C@H]2C[C@H]3CC[C@@H](C2)N3C2CC3CCCCC(C3)C2)c1=O (stereo partly shown) ?
< 4.70

Quick check: pIC50 of O=C(O)CCC(=NO)c1nc2ccccc2n([C@H]2C[C@H]3CCC[C@@H](C2)N3C2CC3CCCC(C3)C2)c1=O (stereo partly shown) ?
< 4.70

====

Would you mind telling me the reported IC50 of each entry?

Form: Entry = COCCO/N=C(\CCC(=O)O)c1nc2ccccc2n([C@H]2C[C@H]3CCC[C@@H](C2)N3C2CC3CCCCC(C3)C2)c1=O (stereo partly shown) | System = UniProt P11712 | IC50 = ____
> 20 µM

Form: Entry = O=C(O)C(=NOCCO)c1nc2ccccc2n([C@H]2C[C@H]3CCC[C@@H](C2)N3C2CC3CCCCC(C3)C2)c1=O (stereo partly shown) | System = UniProt P11712 | IC50 = ____
> 20 µM

Form: Entry = NC(=O)CO/N=C(\CCC(=O)O)c1nc2ccccc2n([C@H]2C[C@H]3CCC[C@@H](C2)N3C2CC3CCCCC(C3)C2)c1=O (stereo partly shown) | System = UniProt P11712 | IC50 = ____
> 20 µM

Form: Entry = CC(C)C(O/N=C(\C(=O)O)c1nc2ccccc2n([C@H]2C[C@H]3CCC[C@@H](C2)N3C2CC3CCCC(C3)C2)c1=O)C(N)=O (stereo partly shown) | System = UniProt P11712 | IC50 = ____
> 20 µM

Form: Entry = CC(C)(O/N=C(\C(=O)O)c1nc2ccccc2n([C@H]2C[C@H]3CC[C@@H](C2)N3C2CC3CCCCC(C3)C2)c1=O)C(N)=O (stereo partly shown) | System = UniProt P11712 | IC50 = ____
> 20 µM

Form: Entry = CON=C(C(=O)O)c1nc2ccccc2n([C@H]2C[C@H]3COC[C@@H](C2)N3C2CC3CCCCC(C3)C2)c1=O (stereo partly shown) | System = UniProt P11712 | IC50 = ____
> 20 µM

Form: Entry = NC(=O)CCC(=NOCC(=O)O)c1nc2ccccc2n([C@H]2C[C@H]3CCC[C@@H](C2)N3C2CC3CCCC(C3)C2)c1=O (stereo partly shown) | System = UniProt P11712 | IC50 = ____
> 20 µM

Form: Entry = NC(=O)C(=NOCC(=O)O)c1nc2ccccc2n([C@H]2C[C@H]3CCC[C@@H](C2)N3C2CC3CCCCC(C3)C2)c1=O (stereo partly shown) | System = UniProt P11712 | IC50 = ____
> 20 µM

Form: Entry = C/C(=N\OCC(=O)O)c1nc2ccccc2n([C@H]2C[C@H]3CCC[C@@H](C2)N3C2CC3CCCC(C3)C2)c1=O (stereo partly shown) | System = UniProt P11712 | IC50 = ____
> 20 µM

Form: Entry = CN(C)C(=O)CON=C(C(=O)O)c1nc2ccccc2n([C@H]2C[C@H]3CCC[C@@H](C2)N3C2CC3CCCC(C3)C2)c1=O (stereo partly shown) | System = UniProt P11712 | IC50 = ____
> 20 µM

Form: Entry = CNC(=O)CON=C(C(=O)O)c1nc2ccccc2n([C@H]2C[C@H]3CCC[C@@H](C2)N3C2CC3CCCC(C3)C2)c1=O (stereo partly shown) | System = UniProt P11712 | IC50 = ____
> 20 µM

Form: Entry = CC(C)ON=C(C(=O)O)c1nc2ccccc2n([C@H]2C[C@H]3CCC[C@@H](C2)N3C2CC3CCCC(C3)C2)c1=O (stereo partly shown) | System = UniProt P11712 | IC50 = ____
> 20 µM

Form: Entry = CCON=C(C(=O)O)c1nc2ccccc2n([C@H]2C[C@H]3CC[C@@H](C2)N3C2CC3CCCCC(C3)C2)c1=O (stereo partly shown) | System = UniProt P11712 | IC50 = ____
> 20 µM
